Hey, just so you know, these numbers are from patent US20230278972A1.

system: Ryegrass, Italian (Italian ryegrass, Lolium multiflorum); assay: Test A postemergence, Ryegrass, Italian; type: in vivo; conditions: Postemergence, 500 g ai/ha; visual injury vs untreated controls after approx. 10 days; 0 to 100 scale (0 no effect, 100 complete control)
I'd appreciate it if you could supply Ryegrass, Italian plant response rating values for the items below.
The answer should be a number; do not append a unit.

For the molecule shown here, CC(=O)OCN(c1cc(C2=NO[C@@H]3CCC[C@H]23)c(C)cc1C)S(=O)(=O)C(F)(F)F (relative stereo) [Compound 102] , give the reported Ryegrass, Italian plant response rating. 90

For the molecule shown here, Cc1cc(Cl)c(C2=NOC3(CCCC3)C2)cc1NS(=O)(=O)C(F)(F)F [Compound 185] , give the reported Ryegrass, Italian plant response rating. 0

For the molecule shown here, COC1CCN(C(=O)c2cc(NS(=O)(=O)C(F)(F)F)c(C)c(F)c2C)CC1 [Compound 110] , give the reported Ryegrass, Italian plant response rating. 50

* * *

tested on: ducksalad (Heteranthera limosa); test: Test B1 flooded paddy test, ducksalad; type: in vivo; settings: 250 g ai/ha, Flood, applied to paddy water, 2-leaf stage, visually evaluated after 10 to 14 days
observable: Plant response rating, Ducksalad (0 to 100 scale, 0 is no effect, 100 is complete control)
The answer should be a number; do not append a unit.

For the compound shown here, Cc1cc(C)c(N(COC(=O)C(C)(C)C)S(=O)(=O)C(F)(F)F)cc1N1CCC2(CCC(C)CC2)C1=O (centres unmarked) , give the reported Plant response rating, Ducksalad (0 to 100 scale, 0 is no effect, 100 is complete control). 45

For the compound shown here, COCC1CC(c2cc(NS(=O)(=O)C(F)(F)F)c(C)cc2C)=NO1 (centres unmarked) , give the reported Plant response rating, Ducksalad (0 to 100 scale, 0 is no effect, 100 is complete control). 85

For the compound shown here, Cc1cc(C)c(N(COC(=O)C(C)(C)C)S(=O)(=O)C(F)(F)F)cc1N1CCC2(CCC(F)(F)CC2)C1=O , give the reported Plant response rating, Ducksalad (0 to 100 scale, 0 is no effect, 100 is complete control). 75

For the compound shown here, Cc1c(NS(=O)(=O)C(F)(F)F)cc(C(=O)N(C)C)c(C)c1Cl , give the reported Plant response rating, Ducksalad (0 to 100 scale, 0 is no effect, 100 is complete control). 75

For the compound shown here, Cc1c(C(=O)N2CCC(F)(F)CC2)cc(N(COC(=O)C(C)(C)C)S(=O)(=O)C(F)(F)F)c(C)c1C , give the reported Plant response rating, Ducksalad (0 to 100 scale, 0 is no effect, 100 is complete control). 65

For the compound shown here, Cc1c(C(=O)N2CCCCC2)cc(NS(=O)(=O)C(F)(F)F)c(Cl)c1F , give the reported Plant response rating, Ducksalad (0 to 100 scale, 0 is no effect, 100 is complete control). 70

For the compound shown here, Cc1cc(F)c(C2=NOC3CCCC23)cc1NS(=O)(=O)C(F)(F)F (centres unmarked) , give the reported Plant response rating, Ducksalad (0 to 100 scale, 0 is no effect, 100 is complete control). 0

For the compound shown here, Cc1c(NS(=O)(=O)C(F)(F)F)cc(C(=O)N2CCC(Cl)CC2)c(C)c1C , give the reported Plant response rating, Ducksalad (0 to 100 scale, 0 is no effect, 100 is complete control). 45
